Assay: Inhibition of MCP1-induced chemotaxis in U937 cells overexpressing CCR2
Please assign 0.0 whenever IC50 is at or above 20 µM, and 1.0 whenever it is below.

Here's what some known entries look like.
molecule: Nc1ccc(CN2CCC(Nc3cccc4cnccc34)C2)cc1 (stereo unspecified)
label-value: 1.0
//
molecule: Clc1ccc(CN2CCCC(Nc3cccc4cnccc34)C2)cc1 (stereo unspecified)
label-value: 0.0
//
molecule: Clc1ccc(CN2CCC(Nc3cccc4cnccc34)C2)cc1 (stereo unspecified)
label-value: 1.0
//
molecule: Nc1ccccc1CN1CCC(Nc2cccc3cnccc23)C1 (stereo unspecified)
label-value: 1.0

Okay, next one:
[in] Lab log: compare recorded IC50 with 20 µM; is it strictly lower for `Nc1cccc(CN2CC[C@H](Nc3cccc4cnccc34)C2)c1` ?
[out] 0.0

###

Assay: Inhibition of MCP1-induced chemotaxis in U937 cells overexpressing CCR2
I'd be grateful if you could share measured pIC50 for these entries.
One number for each entry, as −log10 of the molar value.

Batch lookup, pIC50 per entry.
1. Clc1cccc(CN2CCC(Nc3cccc4cnccc34)C2)c1 (stereo not given)
2. Nc1cccc(CN2CC[C@@H](Nc3cccc4cnccc34)C2)c1
3. Fc1cccc(F)c1CN1CCC(Nc2cccc3cnccc23)C1 (stereo not given)
4. Clc1ccccc1CN1CCC(Nc2cccc3cnccc23)C1 (stereo not given)
5. Fc1ccc(CN2CCC(Nc3cccc4cnccc34)C2)cc1 (stereo not given)

[out]
4.85
6.00
5.00
4.77
4.66

Source of measurements: BindingDB's records for doi:10.1016/j.bmc.2006.10.028
